Assay: qHTS assay to identify small molecule that activate the aryl hydrocarbon receptor (AhR) signaling pathway - cell viability counter screen (AID 743086);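 further: HepG2 liver cells carrying the AhR DRE luciferase reporter; nearly all actives have a fitted effect of over 45% in size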
Conditions: HepG2-AhR-luc viability, CellTiter-Fluor, 24 h; series mostly up to 70.3 µM
Text: U.S. Tox21 Program National Center for Advancing Translational Sciences [NCATS] NIH Chemical Genomics Center [NCGC] U.S. Environmental Protection Agency [EPA] National Institutes of Environmental Health Sciences [NIEHS] National Toxicology Program [NTP] U.S. Food and Drug Administration [FDA] Tox21 Assay overview: The Aryl hydrocarbon Receptor (AhR), a member of the family of basic helix-loop-helix transcription factors, is crucial to adaptive responses to environmental changes. […]
Inconclusive results are not listed. Calls of active or inactive are those of the source. The call rests on the fitted dose curve; in most records, active means well fitted cell-killing curve with a large enough effect in the repeat runs; inconclusive means weak or mixed curves, or effect the other way; inactive means flat fitted curve, though single readings scatter.
MEASURED QUANTITY: outcome

Previously resolved entries follow.
CC(C)(C)c1ccc(CSc2cnn(C(C)(C)C)c(=O)c2Cl)cc1 ... inactive
Cc1cc(C)cc(OP(=O)(Oc2cc(C)cc(C)c2)Oc2cc(C)cc(C)c2)c1 ... inactive
Clc1ccc(CO/N=C(\Cn2ccnc2)c2ccc(Cl)cc2Cl)c(Cl)c1 ... inactive
Cn1cc(C2=C(c3cn(C4CCN(Cc5ccccn5)CC4)c4ccccc34)C(=O)NC2=O)c2ccccc21 ... inactive
NNC(=O)c1ccccc1 ... inactive

We next turn to a different compound, shown below.
// query # return recorded outcome for entry N#CSCSC#N
// result inactive

###

Target: Peroxisome proliferator-activated receptor gamma (Homo sapiens) (UniProt P37231)
Sequence (P37231 whole entry, looked up): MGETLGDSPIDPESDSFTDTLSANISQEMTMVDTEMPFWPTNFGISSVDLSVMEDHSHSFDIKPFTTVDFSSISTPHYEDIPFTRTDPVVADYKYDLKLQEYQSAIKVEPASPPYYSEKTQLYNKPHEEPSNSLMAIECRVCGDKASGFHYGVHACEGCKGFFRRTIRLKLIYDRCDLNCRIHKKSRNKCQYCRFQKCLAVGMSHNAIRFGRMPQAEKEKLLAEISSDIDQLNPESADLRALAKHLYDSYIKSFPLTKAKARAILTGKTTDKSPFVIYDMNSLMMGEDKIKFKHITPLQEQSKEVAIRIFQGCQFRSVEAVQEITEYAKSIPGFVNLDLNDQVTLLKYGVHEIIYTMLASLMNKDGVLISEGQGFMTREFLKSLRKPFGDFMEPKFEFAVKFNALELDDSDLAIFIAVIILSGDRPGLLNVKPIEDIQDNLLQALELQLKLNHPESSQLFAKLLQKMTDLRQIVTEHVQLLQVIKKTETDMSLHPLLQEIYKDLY
Test: qHTS assay to identify small molecule antagonists of the peroxisome proliferator-activated receptor gamma (PPARg) signaling pathway (AID 743191); further: nearly all actives have a fitted effect of over 30% in size
Conditions: HEK293H PPARg-UAS-bla, beta-lactamase ratio, antagonist, 17 h; series mostly up to 62.6 µM
Records with an inconclusive call do not appear. Calls of active or inactive are those of the source. The call rests on the fitted dose curve.
Choose the fitting class; nothing outside True for active, False for inactive is accepted.

Example results:
CC(C)CCCCCOC(=O)c1ccccc1C(=O)OCCCCCC(C)C ... False
CC1(C)[C@H](C(=O)O[C@H](C#N)c2cccc(Oc3ccccc3)c2)[C@@H]1/C=C(\Cl)C(F)(F)F ... False
Clc1ccc(C(Cl)(Cl)Cl)c(Cl)c1 ... False
Clc1ccc(-c2ccc(Cl)c(Cl)c2Cl)c(Cl)c1Cl ... False
COc1ccc(OC)c(CC(C)N)c1 (stereo not drawn) ... False
CC(C)OC(=S)S ... False
Oc1c(Cl)c(Cl)cc(Cl)c1Cl ... True

From here, focus on the item given below.
// query Status in this test for CC(C)(C)c1cc([N+](=O)[O-])cc(C(C)(C)C)c1O ?
// result False

###

Experiment: qHTS assay to identify small molecule antagonists of the estrogen related receptor signaling pathway with the pleiotropic PPARgamma coactivator (PGC) from Tox21 10K library (AID 1224841); further: actives are mostly falling curves and most rising ones were filed inactive; nearly all actives have a fitted effect of over 50% in size
Conditions: PGC/ERR reporter cell line, ONE-Glo luciferase, 18 h; series mostly up to 92.4 µM
Results filed as inconclusive are left out. Calls of active or inactive are those of the source. The rule behind the calls is not given here.
Field 'call' accepts active, inactive

CCCCOCN(C(=O)CCl)c1c(CC)cccc1CC ... active
COc1ccc(/C(=C/C(=O)N2CCOCC2)c2ccc(Cl)cc2)cc1OC ... inactive

// query Which result was noted for this molecule in the test: C[C@@H]1CC[C@@]2(OC1)O[C@H]1[C@@H](O)[C@H]3[C@@H]4CC[C@H]5C[C@@H](O[C@@H]6O[C@H](CO)[C@H](O[C@@H]7O[C@H](CO)[C@@H](O)[C@H](O[C@@H]8OC[C@@H](O)[C@H](O)[C@H]8O)[C@H]7O[C@@H]7O[C@H](CO)[C@@H](O)[C@H](O[C@@H]8O[C@H](CO)[C@@H](O)[C@H](O)[C@H]8O)[C@H]7O)[C@H](O)[C@H]6O)[C@H](O)C[C@]5(C)[C@H]4CC[C@]3(C)[C@H]1[C@@H]2C
// result active

// query Status in this test for CC[C@H]1C[C@@H]2C[C@H]3c4[nH]c5ccc(OC)cc5c4CCN(C2)[C@@H]13 ?
// result active

// query Each molecule tested received a call. Report the one for Oc1c(Cl)c(Cl)cc(Cl)c1Cl .
// result active

// query Could you please tell me the result logged for O=C(O)C1C2CCC(O2)C1C(=O)O (stereo not drawn) in this assay?
// result inactive

// query Lab log entry: Cc1cc(C)c(C2=C(OC(=O)CC(C)(C)C)C3(CCCC3)OC2=O)c(C)c1 — outcome as called in the assay?
// result inactive

// query Name the outcome recorded for OC(c1ccc(Cl)cc1)(c1ccc(Cl)cc1)C(Cl)(Cl)Cl in the assay.
// result inactive
